Target: Amylin/IAPP fibrils (Homo sapiens, UniProt P10997)
Sequence (P10997 34-70 limits assumed): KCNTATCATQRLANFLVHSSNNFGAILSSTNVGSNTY
Experiment: Congo red binding assay, Amylin/IAPP fibrils
Format: biochemical
Details: Amylin/IAPP:test compound wt/wt ratio 1:1; 3-day incubation
quantity_measured: % Inhibition Amylin/IAPP (result ± S.D.), Congo red binding (%)

[
  {
    "compound": "Oc1ccc(-c2cc(-c3ccc(O)c(O)c3)[nH]n2)cc1O [Compound 8, 3,5 bis(3,4 Dihydroxyphenyl)Pyrazole]",
    "unit_label": "%",
    "experimental_result": 74.9
  },
  {
    "compound": "Oc1ccc(C23CC4CC(C2)CC(c2ccc(O)c(O)c2)(C4)C3)cc1O [Compound 9, 1,3 bis(3,4 dihydroxyphenyl) Adamantane]",
    "unit_label": "%",
    "experimental_result": 88.6
  },
  {
    "compound": "CN(C(=O)c1ccc(O)c(O)c1)c1ccc(O)c(O)c1",
    "unit_label": "%",
    "experimental_result": 70.8
  },
  {
    "compound": "Oc1ccc(-c2nnc(-c3ccc(O)c(O)c3)[nH]2)cc1O",
    "unit_label": "%",
    "experimental_result": 66.2
  }
]
